- target: Bromodomain-containing protein 4 (Homo sapiens, UniProt O60885)
- assayRemarks: Time Resolved Fluorescence Resonance Energy Transfer (TR-FRET) Assay: The binding of compounds to bromodomain BRD4 (44-168), BRD4 (333-460), and BRD4 (1-477 or 44-460) was assessed using a time resolved fluorescent resonance energy transfer binding assay (1), that measures the binding of a fluorescently labeled probe molecule to the bromodomain protein. The bromodomain protein, fluorescent probe molecule (either a biotinylated histone peptide or a fluorescently labeled small molecule), and dose-responsed test compound are incubated together to reach thermodynamic equilibrium. In the absence of a test compound, the bromodomain and small molecule are bound, resulting in a high fluorescent signal. In the presence of a sufficient concentration of inhibitor, this intercation is disrupted resulting in a loss of fluorescent resonance energy transfer.
Answer each item with its documented IC50.

Record Cc1noc(C)c1-c1cc(C(N)=O)c2c(c1)c1ccc(S(C)(=O)=O)cc1n2S(=O)(=O)C1CC1 ; system Bromodomain-containing protein 4 (Homo sapiens, UniProt O60885); IC50 = < 500 nM

Record Cc1noc(C)c1-c1cc(C(N)=O)c2c(c1F)c1ccc(C(=O)N3C[C@@H](C)O[C@@H](C)C3)cc1n2CC1CC1 ; system Bromodomain-containing protein 4 (Homo sapiens, UniProt O60885); IC50 = < 50 nM

Record Cc1noc(C)c1-c1cc(C(=O)NCC2CC2)c2c(c1)c1c(S(C)(=O)=O)cccc1n2CC1CC1 ; system Bromodomain-containing protein 4 (Homo sapiens, UniProt O60885); IC50 = < 500 nM

Record Cc1noc(C)c1-c1cc(C(N)=O)c2c(c1)c1ccc(N3CCCC3=O)cc1n2CC1CC1 ; system Bromodomain-containing protein 4 (Homo sapiens, UniProt O60885); IC50 = < 50 nM

Record COC(=O)Nc1ccc2c3cc(-c4c(C)noc4C)cc(C(N)=O)c3n(CC3CC3)c2c1 ; system Bromodomain-containing protein 4 (Homo sapiens, UniProt O60885); IC50 = < 500 nM

Record Cc1noc(C)c1-c1cc(C(N)=O)c2c(c1)c1ccc(C(C)(C)O)cc1n2S(C)(=O)=O ; system Bromodomain-containing protein 4 (Homo sapiens, UniProt O60885); IC50 = < 50 nM

Record COC1CN(C(=O)c2ccc3c4cc(-c5c(C)noc5C)cc(C(N)=O)c4n(S(=O)(=O)C4CC4)c3c2)C1 ; system Bromodomain-containing protein 4 (Homo sapiens, UniProt O60885); IC50 = < 50 nM

Record Cc1noc(C)c1-c1cc(C(N)=O)c2c(c1)c1ccc(N3CCOCC3)cc1n2CC1CC1 ; system Bromodomain-containing protein 4 (Homo sapiens, UniProt O60885); IC50 = < 5000 nM
